# Test system: female NMRI mice
# Format: in vivo
# RUN_CONDITIONS: mouse, in vivo
ASSAY_METRIC: Therapeutic range, relative
Please respond with just the number, no unit label.

Requested field: Therapeutic range, relative. Item: Cc1nnc(C=Cc2ccccc2OCC(O)CNC(C)C)s1 (stereo not shown)
10.84

Requested field: Therapeutic range, relative. Item: C#CC(C)NCC(O)COc1ccccc1C=Cc1nnc(C)s1 (stereo not shown)
30.68

Requested field: Therapeutic range, relative. Item: Cc1nnc(C=Cc2ccccc2OCC(O)CNC2CC2)s1 (stereo not shown)
7.55

Requested field: Therapeutic range, relative. Item: Cc1nnc(C=Cc2ccccc2OCC(O)CNC(C)(C)C)s1 (stereo not shown)
13.73
